Target: Muscarinic acetylcholine receptor M1 (Homo sapiens)
Sequence (P11229 whole entry): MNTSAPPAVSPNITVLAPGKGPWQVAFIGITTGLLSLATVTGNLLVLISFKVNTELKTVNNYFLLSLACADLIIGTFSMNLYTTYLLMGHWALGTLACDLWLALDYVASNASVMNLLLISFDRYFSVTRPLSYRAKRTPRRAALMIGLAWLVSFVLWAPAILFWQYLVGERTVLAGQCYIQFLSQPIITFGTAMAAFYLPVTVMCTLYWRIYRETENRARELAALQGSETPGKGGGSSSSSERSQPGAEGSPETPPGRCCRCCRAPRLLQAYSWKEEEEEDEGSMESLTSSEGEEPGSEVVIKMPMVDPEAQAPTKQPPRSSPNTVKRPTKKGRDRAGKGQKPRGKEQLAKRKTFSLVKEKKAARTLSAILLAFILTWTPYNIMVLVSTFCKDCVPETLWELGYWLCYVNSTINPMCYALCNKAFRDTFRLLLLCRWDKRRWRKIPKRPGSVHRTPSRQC
Assay: Antagonist activity at human muscarinic M1 receptor expressed in CHO cells assessed as inhibition of acetylcholine-induced calcium mobilization by fluorescence analysis
Assay type: functional, cell-based
Conditions: read-out: IC50
Kindly apply the following: MET if IC50 is less than 2000 nM, NOT MET in every other case.

# compound, discrete-label
data = [
    ("Cc1cc(N2CCN(C(=O)C3CN(S(=O)(=O)c4cccc5cnccc45)C3)CC2)ccn1", "MET"),
    ("O=C(C1CCCN(S(=O)(=O)c2cccc3nsnc23)C1)N1CCN(c2ccncc2)CC1 (racemic)", "NOT MET"),
    ("O=C(C1CN(S(=O)(=O)c2ccc3c(c2)CCO3)C1)N1CCN(c2ccncc2)CC1", "MET"),
    ("O=C(C1CN(S(=O)(=O)c2cccc3c2OCO3)C1)N1CC2CN(c3ccncc3)CC2C1 (centres undefined)", "MET"),
    ("O=C(C1CN(S(=O)(=O)c2cccnc2Cl)C1)N1CCN(c2ccncc2)CC1", "MET"),
    ("O=C(C1CN(S(=O)(=O)c2ccc(Cl)nc2)C1)N1CCN(c2ccncc2)CC1", "MET"),
    ("O=C(C1CN(S(=O)(=O)c2cccc(F)c2)C1)N1CCN(c2ccncc2)CC1", "MET"),
    ("O=C(C1CN(S(=O)(=O)c2ccccc2OC(F)(F)F)C1)N1CCN(c2ccncc2)CC1", "NOT MET"),
    ("O=C(C1CN(S(=O)(=O)c2ccc3cn[nH]c3c2)C1)N1CCN(c2ccncc2)CC1", "NOT MET"),
    ("O=C(C1CN(S(=O)(=O)c2cccc3cnccc23)C1)N1CCN(c2ccnc(Cl)c2)CC1", "MET"),
    ("O=C(C1CN(S(=O)(=O)c2cccc(F)c2)C1)N1CC2CN(c3ccncc3)CC2C1 (centres undefined)", "NOT MET"),
    ("O=C(C1CCN(S(=O)(=O)c2cccc3nsnc23)C1)N1CCN(c2ccncc2)CC1 (racemic)", "NOT MET"),
    ("O=C(C1CN(S(=O)(=O)c2cccnc2)C1)N1CCN(c2ccncc2)CC1", "MET"),
    ("O=C(C1CN(S(=O)(=O)c2cccnc2Cl)C1)N1CC2CN(c3ccncc3)CC2C1 (centres undefined)", "MET"),
    ("O=C(C1CN(S(=O)(=O)c2ccc(Cl)cn2)C1)N1CCN(c2ccncc2)CC1", "NOT MET"),
    ("O=C(C1CN(S(=O)(=O)c2cccc3ncccc23)C1)N1CC2CN(c3ccncc3)CC2C1 (centres undefined)", "NOT MET"),
    ("Cc1ccnc(S(=O)(=O)N2CC(C(=O)N3CCN(c4ccncc4)CC3)C2)c1", "NOT MET"),
    ("O=C(C1CN(S(=O)(=O)c2cccc3cnccc23)C1)N1CC2CN(c3ccncc3)CC2C1 (centres undefined)", "MET"),
    ("Cc1cc(N2CCN(C(=O)C3CN(S(=O)(=O)c4cccc5cnccc45)C3)CC2)cc(C)n1", "MET"),
]

----------
Molecular target: Cytochrome P450 2C9 (Homo sapiens, UniProt P11712)
Sequence (P11712 whole entry): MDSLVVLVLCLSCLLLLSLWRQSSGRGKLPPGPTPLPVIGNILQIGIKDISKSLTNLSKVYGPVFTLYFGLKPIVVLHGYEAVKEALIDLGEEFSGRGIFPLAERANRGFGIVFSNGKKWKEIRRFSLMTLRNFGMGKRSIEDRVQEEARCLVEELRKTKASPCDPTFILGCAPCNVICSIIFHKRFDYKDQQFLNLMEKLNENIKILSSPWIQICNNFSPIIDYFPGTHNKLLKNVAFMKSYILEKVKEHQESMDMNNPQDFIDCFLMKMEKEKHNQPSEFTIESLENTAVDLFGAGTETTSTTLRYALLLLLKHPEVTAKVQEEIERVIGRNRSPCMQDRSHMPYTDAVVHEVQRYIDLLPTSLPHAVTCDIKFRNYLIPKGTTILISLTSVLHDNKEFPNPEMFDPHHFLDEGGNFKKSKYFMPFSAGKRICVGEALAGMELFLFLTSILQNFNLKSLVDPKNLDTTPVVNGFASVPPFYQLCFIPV
experimental-endpoint: IC50

# molecule, target-entity, result
rows = [
    ("O=C(C1CN(S(=O)(=O)c2cccc3cnccc23)C1)N1CC2CN(c3ccncc3)CC2C1 (stereo unspecified)", "Cytochrome P450 2C9 (Homo sapiens, UniProt P11712)", "< 2500 nM"),
]
